System: SK-MEL-5 melanoma
Test: NCI tumour cell line growth inhibition, 48 h
RECORDED METRIC: log10 of TGI (log10 of the value in µM)
The base-10 logarithm of TGI, taken with TGI in µM, is what appears here.

INSERT INTO assay_data (compound, system, recorded_metric, readout_value) VALUES
  ('O=c1cc(-c2ccccc2)oc2c(-c3cc(Cl)cc4c(=O)cc(-c5ccccc5)oc34)cc(Cl)cc12', 'SK-MEL-5 melanoma', 'log10 of TGI', 1.52);

Looking up O=c1c2cc(Br)ccc2nc(CCl)n1-c1ccc(O)c([N+](=O)[O-])c1 , I see its log10 of TGI listed as 1.47

Looking up COCCOCCOC1=CC(=O)c2c(O)ccc(O)c2C1=O , I see its log10 of TGI listed as -0.48

Looking up OC(c1cc2ccc(C(F)(F)F)cc2c2cc(C(F)(F)F)ccc12)C1CCCCN1 (centres undefined) , I see its log10 of TGI listed as 0.46

Looking up Cc1ccc(-c2nc3nc(-c4ccc(F)cc4)nc(N4CCCNCC4)c3o2)cc1 , I see its log10 of TGI listed as 0.50

Looking up O=C(O)[C@@H](Cc1ccc2ccccc2c1)NC(=O)n1c2ccccc2c2ccccc21 , I see its log10 of TGI listed as 0.86

Looking up COc1ccc(CN2CCC/C=C/CC(Cl)(Cl)C2=O)cc1 , I see its log10 of TGI listed as 1.54

Looking up C=C1C(=O)O[C@H]2[C@H]1CC/C(C=Nc1c(N)cc(C(F)(F)F)cc1Br)=C\CC[C@@]1(C)O[C@@H]21 , I see its log10 of TGI listed as 0.42

Entry source: PubChem BioAssay (NCI)
